Experiment: Drug repurposing screens with cells derived from glioblastoma tumor samples (AID 1345199); also: % is scaled to controls: 0 for no effect and ±100 for the full control effect
Conditions: GBM patient neurospheres viability, ATP luminescence, 48 h; at 21.2 µM (top of the series); tumour line B
Records with an inconclusive call do not appear.
# activity, negative = cell killing per entry
State just the number; it will be interpreted in %.

Sample answers from the record:
compound | activity, negative = cell killing [%]
O=C(CCCN1CCC(n2c(=O)[nH]c3ccccc32)CC1)c1ccc(F)cc1 | -8.66
C[C@@H]1CN(C2CCC(C#N)(c3ccc(F)cc3)CC2)CC[C@]1(C(=O)O)c1ccccc1 (stereo partly specified) | -8.19
COc1ccc(CN2CCNCC2)c(OC)c1OC | -2.66
CC(C)[N+](C)(CCC(C(N)=O)(c1ccccc1)c1ccccc1)C(C)C | -18

Would you kindly share the measured activity, negative = cell killing for CCOC(=O)c1cncn1C(C)c1ccccc1 (stereo unspecified) ? 0.856

Would you kindly share the measured activity, negative = cell killing for C[N+]1(C)[C@@H]2CC[C@H]1CC(OC(=O)C(CO)c1ccccc1)C2 (stereo partly specified) ? -14.5
